These measurements were taken from patent US6451820B1.

Parameter IC50: see the listing below.
test system: IL-2 promoter/enhancer; experiment: IL-2 promoter assay (luciferase reporter in J.1F/C6 Jurkat cells); format: cell-based; details: Homo sapiens; J.1F/C6 Jurkat cells stimulated with ionomycin and PMA; luciferase reporter; read-out: IC50

**Q:** Any idea what its IC50 is? The compound is CSc1nc(-c2ccncc2)nn1-c1ccc(NC(=O)c2cccnc2)cc1 [Example 1]
**A:** < 10 µM

Moving on to another compound below.
**Q:** Any idea what its IC50 is? The compound is CSc1nc(-c2ccncc2)nn1-c1ccc(NCc2sccc2C)cc1 [Example 2]
**A:** < 10 µM
